# PROTOCOL TEXT: in vivo
# EXPERIMENTAL CONTEXT: male, Swiss, mouse, po, 100 mg/kg, pH 4
QUANTITY KIND: AUC(0-t) (ng·h/mL)

* CON=C1CC(C)OC(OC2C(C)CC(C)(OC(=O)NC(C)(C)CNS(=O)(=O)c3ccccc3)C(=O)C(C)C(OC(=O)CC(C)C)C(C)C(C(C)COC3OC(C)C(O)C(OC)C3OC)OC(=O)C(C)C(OC3CC(C)N(C)CC(C)O3)C2C)C1O (stereo not shown) [SEQ-9] | 11000

----------
# Type: in vitro ADME, human
# EXPERIMENTAL CONTEXT: in presence of ketoconazole CYP3A inhibitor (K)
QUANTITY KIND: Metabolic stability in human liver microsomes (% metabolized compound after 20 min), (K)

* CO/N=C1\C[C@@H](C)O[C@@H](O[C@@H]2[C@@H](C)[C@H](O[C@H]3C[C@@](C)(O)[C@@H](O)[C@H](C)O3)[C@@H](C)C(=O)O[C@H]([C@@H](C)CO[C@@H]3O[C@H](C)[C@@H](O)[C@@H](OC)[C@H]3OC)[C@H](C)[C@@H](OC(=O)CC(C)C)[C@@H](C)C(=O)[C@@](C)(OC(=O)NCc3ccccc3)C[C@@H]2C)[C@@H]1O [SEQ-416] | 0.5(K) %
* CON=C1CC(C)OC(OC2C(C)CC(C)(OC(=O)NC(C)(C)CNS(=O)(=O)c3ccccc3)C(=O)C(C)C(OC(=O)CC(C)C)C(C)C(C(C)COC3OC(C)C(O)C(OC)C3OC)OC(=O)C(C)C(OC3CC(C)N(C)CC(C)O3)C2C)C1O (stereo not shown) [SEQ-9] | 0(K) %
* CON=C1C[C@@H](C)O[C@@H](O[C@@H]2[C@@H](C)[C@H](O[C@H]3C[C@@H](C)N(C)C[C@H](C)O3)[C@@H](C)C(=O)O[C@H](C(C)CO[C@@H]3O[C@H](C)[C@@H](O)[C@@H](OC)[C@H]3OC)[C@H](C)[C@@H](OC(=O)CC(C)C)[C@@H](C)C(=O)[C@@](C)(OC(=O)NCc3ccccc3)C[C@@H]2C)[C@@H]1O (stereo partly shown) [SEQ-372] | 19(K) %
* COC1C(OCC(C)C2OC(=O)C(C)C(OC3CC(C)(O)C(O)C(C)O3)C(C)C(OC3OC(C)CC(=O)C3O)C(C)CC(C)(O)C(=O)C(C)C(OC(=O)CC(C)C)C2C)OC(C)C(O)C1OC (stereo not shown) [SEQ-503] | 4(K) %

----------
# PROTOCOL TEXT: in vivo
# EXPERIMENTAL CONTEXT: male, Swiss, mouse, po, 10 mg/kg, pH 4, Plasma t1/2, mouse po 10 mg/kg, PEG200/Tween80/Citrate Buffer 100mM pH4 (70/5/25)
QUANTITY KIND: half-life

• CON=C1CC(C)OC(OC2C(C)CC(C)(OC(=O)NC(C)(C)CNS(=O)(=O)c3ccccc3)C(=O)C(C)C(OC(=O)CC(C)C)C(C)C(C(C)COC3OC(C)C(O)C(OC)C3OC)OC(=O)C(C)C(OC3CC(C)N(C)CC(C)O3)C2C)C1O (stereo not shown) = 3 h

----------
# SYSTEM NAME: CYP3A4 (Homo sapiens, UniProt P08684)
# Construct: human liver microsomes (purchased from BD Gentest as a pooled batch from 150 donors); tissue BD Gentest Cat#452117; host or cells: pooled human liver microsomes (150 donors)
# Sequence (P08684 whole entry): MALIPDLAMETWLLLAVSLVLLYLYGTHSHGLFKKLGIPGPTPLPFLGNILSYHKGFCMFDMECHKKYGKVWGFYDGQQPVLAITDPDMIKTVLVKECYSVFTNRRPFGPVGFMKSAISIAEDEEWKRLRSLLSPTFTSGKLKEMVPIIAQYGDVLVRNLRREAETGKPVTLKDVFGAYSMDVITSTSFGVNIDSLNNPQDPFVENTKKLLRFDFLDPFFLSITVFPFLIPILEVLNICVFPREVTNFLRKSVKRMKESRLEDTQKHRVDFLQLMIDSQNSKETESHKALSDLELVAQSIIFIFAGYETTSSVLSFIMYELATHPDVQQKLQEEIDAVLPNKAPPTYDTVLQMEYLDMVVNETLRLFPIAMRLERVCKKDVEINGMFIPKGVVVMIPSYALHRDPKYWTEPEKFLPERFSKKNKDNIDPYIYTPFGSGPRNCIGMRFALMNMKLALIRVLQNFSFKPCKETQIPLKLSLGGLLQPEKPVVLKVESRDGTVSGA
# PROTOCOL TEXT: CYP3A4 reversible inhibition in human liver microsomes
# Assay type: in vitro ADME
# EXPERIMENTAL CONTEXT: human, microsomes, pH 7.4, testosterone; read-out: CYP3A4 inhibition, IC50 with testosterone as substrate (T)
QUANTITY KIND: IC50 at 30 min

- CON=C1CC(C)OC(OC2C(C)CC(C)(OC(=O)NC(C)(C)CNS(=O)(=O)c3ccccc3)C(=O)C(C)C(OC(=O)CC(C)C)C(C)C(C(C)COC3OC(C)C(O)C(OC)C3OC)OC(=O)C(C)C(OC3CC(C)N(C)CC(C)O3)C2C)C1O (stereo not shown): > 50 µM

----------
# PROTOCOL TEXT: in vivo
# EXPERIMENTAL CONTEXT: male, Swiss, mouse, po, 100 mg/kg, Lung t1/2, mouse po 100 mg/kg, Lipidic formulation CremophorRH40/Capryol90/Mygliol812N (10/20/70) diluted in ½ water
QUANTITY KIND: half-life (h)

* CON=C1CC(C)OC(OC2C(C)CC(C)(OC(=O)NC(C)(C)CNS(=O)(=O)c3ccccc3)C(=O)C(C)C(OC(=O)CC(C)C)C(C)C(C(C)COC3OC(C)C(O)C(OC)C3OC)OC(=O)C(C)C(OC3CC(C)N(C)CC(C)O3)C2C)C1O (stereo not shown) [SEQ-9] | 4.5

----------
Collected MIC values appear next to each entry.
# System: Mtb H37Rv
# PROTOCOL TEXT: microbe, parasite or virus in culture
# Format: cell-based, Mycobacterium tuberculosis
# EXPERIMENTAL CONTEXT: Mycobacterium tuberculosis, H37RV; read-out: MIC for Mtb in liquid culture
QUANTITY KIND: MIC (µM)

- CC[C@H]1OC(=O)[C@H](C)[C@@H](O[C@H]2C[C@@](C)(OC)[C@@H](O)[C@H](C)O2)[C@H](C)[C@@H](O[C@@H]2O[C@H](C)C[C@H](N(C)C)[C@H]2O)[C@](C)(O)C[C@@H](C)C(=O)[C@H](C)[C@@H](O)[C@]1(C)O [Erythromycin, reference compound]: 128
- CON=C1C[C@@H](C)O[C@@H](O[C@@H]2[C@@H](C)[C@H](O[C@H]3C[C@@H](C)N(C)C[C@H](C)O3)[C@@H](C)C(=O)O[C@H](C(C)CO[C@@H]3O[C@H](C)[C@@H](O)[C@@H](OC)[C@H]3OC)[C@H](C)[C@@H](OC(=O)CC(C)C)[C@@H](C)C(=O)[C@@](C)(OC(=O)NCc3ccccc3)C[C@@H]2C)[C@@H]1O (stereo partly shown) [SEQ-372]: 0.54
- CON=C1C[C@@H](C)O[C@@H](O[C@@H]2[C@@H](C)[C@H](O[C@H]3C[C@@](C)(O)[C@@H](O)[C@H](C)O3)[C@@H](C)C(=O)O[C@H](C(C)CO[C@@H]3O[C@H](C)[C@@H](O)[C@@H](OC)[C@H]3OC)[C@H](C)[C@@H](OC(=O)CC(C)C)[C@@H](C)C(=O)[C@@](C)(OC(=O)NCCn3c([N+](=O)[O-])cnc3C)C[C@@H]2C)[C@@H]1O (stereo partly shown) [SEQ-569]: 0.57
- CC[C@H]1OC(=O)[C@H](C)[C@@H](O[C@H]2C[C@@](C)(OC)[C@@H](O)[C@H](C)O2)[C@H](C)[C@@H](O[C@@H]2O[C@H](C)C[C@H](N(C)C)[C@H]2O)[C@](C)(O)C[C@@H](C)/C(=N\OCOCCOC)[C@H](C)[C@@H](O)[C@]1(C)O [roxithromycin, reference compound]: 32

----------
# Type: in vitro ADME
QUANTITY KIND: Metabolic stability in mouse liver microsomes (% metabolized compound after 20 min)

• CON=C1C[C@@H](C)O[C@@H](O[C@@H]2[C@@H](C)[C@H](O[C@H]3C[C@@H](C)N(C)C[C@H](C)O3)[C@@H](C)C(=O)O[C@H](C(C)CO[C@@H]3O[C@H](C)[C@@H](O)[C@@H](OC)[C@H]3OC)[C@H](C)[C@@H](OC(=O)CC(C)C)[C@@H](C)C(=O)[C@@](C)(OC(=O)NCc3ccccc3)C[C@@H]2C)[C@@H]1O (stereo partly shown) [SEQ-372] = 8%
• COC1C(OCC(C)C2OC(=O)C(C)C(OC3CC(C)(O)C(O)C(C)O3)C(C)C(OC3OC(C)CC(=O)C3O)C(C)CC(C)(O)C(=O)C(C)C(OC(=O)CC(C)C)C2C)OC(C)C(O)C1OC (stereo not shown) [SEQ-503] = 0/ND %
• CON=C1CC(C)OC(OC2C(C)CC(C)(OC(=O)NC(C)(C)CNS(=O)(=O)c3ccccc3)C(=O)C(C)C(OC(=O)CC(C)C)C(C)C(C(C)COC3OC(C)C(O)C(OC)C3OC)OC(=O)C(C)C(OC3CC(C)N(C)CC(C)O3)C2C)C1O (stereo not shown) [SEQ-9] = 8%
• CO/N=C1\C[C@@H](C)O[C@@H](O[C@@H]2[C@@H](C)[C@H](O[C@H]3C[C@@](C)(O)[C@@H](O)[C@H](C)O3)[C@@H](C)C(=O)O[C@H]([C@@H](C)CO[C@@H]3O[C@H](C)[C@@H](O)[C@@H](OC)[C@H]3OC)[C@H](C)[C@@H](OC(=O)CC(C)C)[C@@H](C)C(=O)[C@@](C)(OC(=O)NCc3ccccc3)C[C@@H]2C)[C@@H]1O [SEQ-416] = 25%
